B1: FAM107A (parent)
chain: HRRGLGVDSKPELQRVLEHRRRNQ

- Variants of: B1
- Test description: protein stability index of a GFP-peptide fusion (GPS, HEK-293T) (PSI 1-6); higher = more stable;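 further: lentivirally expressed fusions sorted by FACS into six bins by GFP to DsRed ratio, PSI derived from sequencing read proportions per bin multiplied by bin number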
- Protocol conditions: c terminus: a fixed tail appended
Measured parameter: protein stability index
The answer should be written as a number, with no unit following it.

IN: Query (variant): HRMGLGVDSKPELQRVLEHRRRNQ [R3M] ; field requested: protein stability index
OUT: 3.9

IN: Query (variant): HRRGLGVDSKPELQRVLEHNRRNQ [R20N] ; field requested: protein stability index
OUT: 4.04

IN: Query (variant): HRRGLGVDSKPELQMVLEHRRRNQ [R15M] ; field requested: protein stability index
OUT: 4.06
